# TARGET DESC: T1, LRP6 E1E2 protein (human, UniProt O75581 20-630, limits assumed)
# T1 construct: domain: E1E2
# T1 sequence (looked up): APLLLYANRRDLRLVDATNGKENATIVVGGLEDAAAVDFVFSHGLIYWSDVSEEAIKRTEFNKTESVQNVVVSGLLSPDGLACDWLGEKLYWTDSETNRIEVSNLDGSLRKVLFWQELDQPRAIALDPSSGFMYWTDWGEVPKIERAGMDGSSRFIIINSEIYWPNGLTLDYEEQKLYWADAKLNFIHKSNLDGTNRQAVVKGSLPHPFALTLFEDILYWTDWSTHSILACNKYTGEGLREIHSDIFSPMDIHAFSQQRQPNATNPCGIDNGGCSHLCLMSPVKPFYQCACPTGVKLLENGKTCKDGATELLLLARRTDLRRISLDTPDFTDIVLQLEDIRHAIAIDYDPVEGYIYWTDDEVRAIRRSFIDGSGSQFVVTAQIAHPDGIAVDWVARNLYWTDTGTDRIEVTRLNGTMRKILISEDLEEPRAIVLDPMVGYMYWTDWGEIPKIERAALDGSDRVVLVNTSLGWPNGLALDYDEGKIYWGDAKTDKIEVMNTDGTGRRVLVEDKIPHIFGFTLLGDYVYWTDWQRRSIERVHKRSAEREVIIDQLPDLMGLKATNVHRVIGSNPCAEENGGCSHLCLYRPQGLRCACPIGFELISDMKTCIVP
# PROTOCOL DETAILS: spot phage ELISA
ATTRIBUTE MEASURED: ELISA
Could you respond with only the numeric value?

Consider the reported ELISA for these binders:
[ask] So what does the record say about ELISA for GCRGNIIKCKQDSDCLAGCVCNESRGCG (designed binder) [LRP6_CKP8] ?
[reply] 3.23

[ask] Quick one: ELISA of GCVNKIKGCKQDSDCLAGCVCGVEGRCG (designed binder) [LRP6_CKP5] ?
[reply] 3.04

[ask] Return reported ELISA; argument: GCRANRVSGRCKQDSDCLAGCVCGPNGFCG (designed binder) [LRP6_CKP18]
[reply] 1.67

Let us examine a further case.
[ask] So what's the measured ELISA for this one? GCRNSIKRCKQNSDCLAGCVCSVGHGCG (designed binder) [LRP6_CKP6]
[reply] 3.1
